Examples of compounds with documented pIC50 follow.
# tested_target: Epidermal growth factor receptor (Homo sapiens, UniProt P00533, L858R/T790M)
# Sequence (P00533 25-1210 T790M/L858R limits assumed): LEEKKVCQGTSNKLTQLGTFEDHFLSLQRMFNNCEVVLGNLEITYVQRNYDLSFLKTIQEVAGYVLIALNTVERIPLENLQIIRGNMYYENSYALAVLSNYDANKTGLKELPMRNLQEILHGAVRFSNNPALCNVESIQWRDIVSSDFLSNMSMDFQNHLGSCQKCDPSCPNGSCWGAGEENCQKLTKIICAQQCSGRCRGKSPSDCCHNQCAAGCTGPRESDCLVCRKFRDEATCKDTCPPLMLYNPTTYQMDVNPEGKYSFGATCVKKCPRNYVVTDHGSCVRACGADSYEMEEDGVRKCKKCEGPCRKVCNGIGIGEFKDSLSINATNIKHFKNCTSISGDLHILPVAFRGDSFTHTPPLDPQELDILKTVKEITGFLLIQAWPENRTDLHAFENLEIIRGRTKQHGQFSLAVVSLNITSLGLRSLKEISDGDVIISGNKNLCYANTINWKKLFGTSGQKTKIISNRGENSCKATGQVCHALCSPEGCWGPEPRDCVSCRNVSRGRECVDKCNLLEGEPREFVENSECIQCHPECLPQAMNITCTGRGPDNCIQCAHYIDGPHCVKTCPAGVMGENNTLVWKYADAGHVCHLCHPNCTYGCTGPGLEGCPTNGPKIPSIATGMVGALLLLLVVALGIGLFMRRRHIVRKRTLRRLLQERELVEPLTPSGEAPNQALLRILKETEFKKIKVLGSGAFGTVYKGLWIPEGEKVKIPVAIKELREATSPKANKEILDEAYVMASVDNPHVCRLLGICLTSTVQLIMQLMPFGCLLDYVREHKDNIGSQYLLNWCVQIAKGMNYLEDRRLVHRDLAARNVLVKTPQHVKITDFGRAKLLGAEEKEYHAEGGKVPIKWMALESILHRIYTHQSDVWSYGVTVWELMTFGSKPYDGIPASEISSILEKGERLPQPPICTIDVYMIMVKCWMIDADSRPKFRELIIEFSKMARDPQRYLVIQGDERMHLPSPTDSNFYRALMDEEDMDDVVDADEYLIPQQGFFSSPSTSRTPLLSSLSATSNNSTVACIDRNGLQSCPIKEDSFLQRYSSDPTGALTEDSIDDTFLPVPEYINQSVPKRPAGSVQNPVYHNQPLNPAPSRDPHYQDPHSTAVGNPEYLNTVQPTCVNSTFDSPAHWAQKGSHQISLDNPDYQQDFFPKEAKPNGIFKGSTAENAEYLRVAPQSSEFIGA
# experiment_notes: Inhibition of human recombinant GST-tagged EGFR L858R/T790M mutant expressed in baculovirus expression system reduction in phosphorylation using tyrosine 4 peptide as substrate after 60 mins FRET based Z'-LYTE assay
Hey, just a heads up that pIC50 is the negative log base 10 of the concentration in molar.

Some entries whose results are on file:
smiles_repr: Cc1cc(=O)n2nc(SCc3ccc(Cl)cc3Cl)nc2[nH]1
pIC50: 6.85
--
smiles_repr: Cc1cc(O)n2nc(SCc3cccc(Cl)c3)nc2n1
pIC50: 7.23
--
smiles_repr: Cc1cc(=O)n2nc(SCc3ccc([N+](=O)[O-])cc3)nc2[nH]1
pIC50: 7.12

Exercise: Specify measured pIC50 for Cc1cc(=O)n2nc(SCc3cccc([N+](=O)[O-])c3)nc2[nH]1 .
Key: 7.11

Exercise: Quick one: give measured pIC50 for Cc1cc(=O)n2nc(SCc3ccc(C(C)C)cc3)nc2[nH]1
Key: 7.21
